Provenance of the data: paper PMC8040252

We begin with a simple list: items and their reported cytotoxicity at 24 h, 10 µM.
assay_remarks: MTT cell viability assay in HEK cells
Format: cell-based, human
test_parameters: human, compounds discarded, read-out: cell viability affected by
Experimental: With this approach, 24 oxadiazole-bearing pyrazoles were synthesized and tested in human embryonic kidney (HEK) cells for SOCE inhibition. To this aim, intracellular Ca^2+ stores of HEK cells were emptied with t-butylhydroquinone (tBhQ, 50 μM) in the presence of the compounds at 10 μM concentration. After 600 s, Ca^2+ was added and intracellular levels were measured in fluorescence microscopy with the calcium dye Fura-2. […] For these compounds, the cell viability was therefore evaluated. […]
reported_metric: cytotoxicity at 24 h, 10 µM

| molecule | reported_metric | result |
| --- | --- | --- |
| Cc1noc(-c2cnn(-c3ccc(NC(=O)c4ccc5nc[nH]c5c4)cc3)c2C(F)(F)F)n1 [compound 31] | cytotoxicity at 24 h, 10 µM | > 25% |
| Cc1noc(-c2cnn(-c3ccc(NC(=O)c4snnc4C)cc3)c2C(F)(F)F)n1 [compound 33] | cytotoxicity at 24 h, 10 µM | > 25% |
| Cc1noc(-c2cnn(-c3ccc(NC(=O)c4ccc(Cl)cc4)cc3)c2C(F)(F)F)n1 [compound 23] | cytotoxicity at 24 h, 10 µM | > 25% |
